System: HUVEC
Experiment: Inhibition of FGF-induced proliferation of HUVEC cells
Assay type: functional, cell-based
Settings: Homo sapiens
IC50 for assorted compounds

Reference set, count: 3
> print(dat)
                            chemical.string  observed.value
1  O=C(Nc1ccc(Cl)cc1)N1CCOc2cc(Oc3ncnc4[nH]ccc34)ccc21          > 1 µM
2  Cc1ccc(NC(=O)N2CCOc3cc(Oc4ncnc5[nH]ccc45)ccc32)cc1          > 1 µM
3  CNC(=O)c1cc(Oc2ccc3c(c2)OCCN3C(=O)Nc2ccc(Cl)cc2)ccn1          > 1 µM

Query: Provide value of IC50 for this record tested with HUVEC: COc1cc2nccc(Oc3ccc4c(c3)OCCN4C(=O)NCc3ccccc3)c2cc1OC
Response: > 1.1 µM
